Where do these numbers come from? They come from patent US10851108B2.

# target-desc: hERG (Homo sapiens (Human), UniProt Q12809)
# Sequence (Q12809 whole entry): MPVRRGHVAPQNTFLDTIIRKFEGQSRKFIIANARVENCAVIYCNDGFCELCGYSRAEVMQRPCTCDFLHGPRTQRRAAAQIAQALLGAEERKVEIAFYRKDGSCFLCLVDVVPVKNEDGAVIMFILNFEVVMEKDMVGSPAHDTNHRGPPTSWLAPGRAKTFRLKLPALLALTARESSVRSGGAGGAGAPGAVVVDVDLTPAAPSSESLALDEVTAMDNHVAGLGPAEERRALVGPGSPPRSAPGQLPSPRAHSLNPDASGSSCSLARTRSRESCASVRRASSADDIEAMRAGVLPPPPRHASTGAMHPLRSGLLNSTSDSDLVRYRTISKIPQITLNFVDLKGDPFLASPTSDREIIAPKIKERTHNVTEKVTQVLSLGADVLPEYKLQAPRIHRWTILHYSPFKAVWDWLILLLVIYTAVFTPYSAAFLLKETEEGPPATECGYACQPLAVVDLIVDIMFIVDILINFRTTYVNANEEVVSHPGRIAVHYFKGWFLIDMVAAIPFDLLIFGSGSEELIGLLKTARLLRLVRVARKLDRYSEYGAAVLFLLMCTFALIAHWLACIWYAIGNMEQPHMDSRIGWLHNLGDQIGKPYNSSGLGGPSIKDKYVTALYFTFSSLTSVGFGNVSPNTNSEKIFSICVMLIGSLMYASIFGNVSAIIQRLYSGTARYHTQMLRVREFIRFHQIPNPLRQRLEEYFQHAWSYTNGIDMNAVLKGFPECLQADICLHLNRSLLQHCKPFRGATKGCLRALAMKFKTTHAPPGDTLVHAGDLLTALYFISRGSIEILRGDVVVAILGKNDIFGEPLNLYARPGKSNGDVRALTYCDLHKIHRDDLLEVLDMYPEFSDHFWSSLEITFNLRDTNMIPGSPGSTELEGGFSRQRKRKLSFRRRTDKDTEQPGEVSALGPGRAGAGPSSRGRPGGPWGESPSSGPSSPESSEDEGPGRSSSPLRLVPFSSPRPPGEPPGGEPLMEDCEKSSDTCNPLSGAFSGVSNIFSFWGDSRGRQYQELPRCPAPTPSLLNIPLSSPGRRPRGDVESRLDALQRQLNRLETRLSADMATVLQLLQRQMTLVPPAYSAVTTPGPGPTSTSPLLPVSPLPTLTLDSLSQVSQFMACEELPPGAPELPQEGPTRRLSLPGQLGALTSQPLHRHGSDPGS
# method-summary: hERG Manual Patch Clamp Assay
# Type: cell-based
# condition-set: human, HEK 293 cells stably expressing hERG channels, pH 7.4, 3 uM, read-out: hERG EP % Inhibition at 3 uM
measured-endpoint: inhibition at 3 µM (%)

molecule="Cc1c(C(O)CN2CCc3nc(-n4cnc5ncccc54)ncc3C2)ccc2c1COC2=O (single isomer, unassigned)" measured_endpoint="inhibition at 3 µM" recorded_value=34
molecule="Cc1c(C(O)CN2CCc3nc(-n4ccnc4C)ncc3C2)ccc2c1COC2=O (single isomer, unassigned)" measured_endpoint="inhibition at 3 µM" recorded_value=27
molecule="Cc1cn(-c2ncc3c(n2)CCN(CC(O)c2ccc4c(c2C)COC4=O)C3)cn1 (single isomer, unassigned)" measured_endpoint="inhibition at 3 µM" recorded_value=20

====

# target-desc: hROMK (Homo sapiens (Human), UniProt P48048)
# Sequence (P48048 whole entry): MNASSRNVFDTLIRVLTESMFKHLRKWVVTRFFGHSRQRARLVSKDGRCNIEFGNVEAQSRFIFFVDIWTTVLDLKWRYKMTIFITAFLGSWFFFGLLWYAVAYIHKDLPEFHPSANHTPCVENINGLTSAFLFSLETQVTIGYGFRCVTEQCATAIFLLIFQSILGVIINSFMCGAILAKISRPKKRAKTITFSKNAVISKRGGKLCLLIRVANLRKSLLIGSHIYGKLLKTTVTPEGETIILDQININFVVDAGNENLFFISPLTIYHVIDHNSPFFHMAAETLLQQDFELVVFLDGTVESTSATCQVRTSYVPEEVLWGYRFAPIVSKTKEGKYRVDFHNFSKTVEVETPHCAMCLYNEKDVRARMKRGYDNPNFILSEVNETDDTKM
# method-summary: ROMK Manual Patch Clamp Assay
# condition-set: whole-cell manual patch clamp, hROMK expressing cells; read-out: hROMK EP IC50
pIC50: −log10 of the molar value.
measured-endpoint: pIC50

compound="Cc1c(C(O)CN2CCc3nc(-n4cc(C#N)c5ncccc54)ncc3C2)ccc2c1COC2=O (single isomer, unassigned) [Example 68-I]" recorded_value=7.64
compound="Cc1c(C(O)CN2CCc3nc(-n4cnc5ncccc54)ncc3C2)ccc2c1COC2=O (single isomer, unassigned) [Example 53-I]" recorded_value=7.06
compound="N#Cc1ccc(Nc2ccc3c(c2)CCN(Cc2ccc4c(c2)COC4=O)C3)cc1F [Example 4]" recorded_value=7.51
compound="Cc1c(C(O)CN2CCc3nc(-n4ncc5ncccc54)ncc3C2)ccc2c1COC2=O (single isomer, unassigned) [Example 41-I]" recorded_value=7.64

====

# target-desc: hROMK (human Kir1.1) (Homo sapiens (Human), UniProt P48048)
# Sequence (P48048 whole entry): as the sequence (P48048 whole entry) above
# method-summary: Thallium Flux Assay
# condition-set: CHO T-Rex hROMK stable cell line, 10-point concentration response; read-out: hROMK Th+ Flux IC50
# Procedure: Solutions and reagents: Thallium flux assay was performed using FluxOR kit (F10017, Life Technologies). Loading buffer, assay buffer and stimulus buffer were prepared using kit components. […] Assay protocol: On the day of experiment, media was removed and loading buffer was added (30 μl/well) to the assay plate. […] Each well was read for 90 sec at 2 sec interval and the stimulus buffer was added after 20 seconds of baseline recording. […]
pIC50: −log10 of the molar value.
measured-endpoint: pIC50

compound=Cc1c(CN2CCc3nc(-n4cnc5c(C#N)cccc54)ncc3C2)ccc2c1COC2=O target_desc="hROMK (human Kir1.1) (Homo sapiens (Human), UniProt P48048)" measured_endpoint=pIC50 recorded_value=5.47
compound=Cc1c(CN2CCc3nc(-n4ccc5c(C#N)cccc54)ncc3C2)ccc2c1COC2=O target_desc="hROMK (human Kir1.1) (Homo sapiens (Human), UniProt P48048)" measured_endpoint=pIC50 recorded_value=5.82
compound=Cc1c(CN2CCc3cc(Nc4ccc5oc(=O)n(C)c5c4)ccc3C2)ccc2c1COC2=O target_desc="hROMK (human Kir1.1) (Homo sapiens (Human), UniProt P48048)" measured_endpoint=pIC50 recorded_value=6.49
compound=Cc1c(CN2CCc3cc(Nc4ccn5nccc5n4)ccc3C2)ccc2c1COC2=O target_desc="hROMK (human Kir1.1) (Homo sapiens (Human), UniProt P48048)" measured_endpoint=pIC50 recorded_value=5.72
compound="Cc1c(C(O)CN2CCc3nc(Nc4cncc(C#N)c4)ncc3C2)ccc2c1COC2=O (single isomer, unassigned)" target_desc="hROMK (human Kir1.1) (Homo sapiens (Human), UniProt P48048)" measured_endpoint=pIC50 recorded_value=6.25
compound="Cn1c(=O)oc2ccc(C(O)CN3CCc4nc(-n5ncc6c(C#N)cccc65)ncc4C3)cc21 (single isomer, unassigned) [Example 3-II]" target_desc="hROMK (human Kir1.1) (Homo sapiens (Human), UniProt P48048)" measured_endpoint=pIC50 recorded_value=5.80
compound="Cc1c(C(O)CN2CCc3nc(Nc4ccc(-n5cnnn5)cn4)ncc3C2)ccc2c1COC2=O (single isomer, unassigned)" target_desc="hROMK (human Kir1.1) (Homo sapiens (Human), UniProt P48048)" measured_endpoint=pIC50 recorded_value=5.91
